assayed-target: UniProt O43526
Sequence (O43526 whole entry): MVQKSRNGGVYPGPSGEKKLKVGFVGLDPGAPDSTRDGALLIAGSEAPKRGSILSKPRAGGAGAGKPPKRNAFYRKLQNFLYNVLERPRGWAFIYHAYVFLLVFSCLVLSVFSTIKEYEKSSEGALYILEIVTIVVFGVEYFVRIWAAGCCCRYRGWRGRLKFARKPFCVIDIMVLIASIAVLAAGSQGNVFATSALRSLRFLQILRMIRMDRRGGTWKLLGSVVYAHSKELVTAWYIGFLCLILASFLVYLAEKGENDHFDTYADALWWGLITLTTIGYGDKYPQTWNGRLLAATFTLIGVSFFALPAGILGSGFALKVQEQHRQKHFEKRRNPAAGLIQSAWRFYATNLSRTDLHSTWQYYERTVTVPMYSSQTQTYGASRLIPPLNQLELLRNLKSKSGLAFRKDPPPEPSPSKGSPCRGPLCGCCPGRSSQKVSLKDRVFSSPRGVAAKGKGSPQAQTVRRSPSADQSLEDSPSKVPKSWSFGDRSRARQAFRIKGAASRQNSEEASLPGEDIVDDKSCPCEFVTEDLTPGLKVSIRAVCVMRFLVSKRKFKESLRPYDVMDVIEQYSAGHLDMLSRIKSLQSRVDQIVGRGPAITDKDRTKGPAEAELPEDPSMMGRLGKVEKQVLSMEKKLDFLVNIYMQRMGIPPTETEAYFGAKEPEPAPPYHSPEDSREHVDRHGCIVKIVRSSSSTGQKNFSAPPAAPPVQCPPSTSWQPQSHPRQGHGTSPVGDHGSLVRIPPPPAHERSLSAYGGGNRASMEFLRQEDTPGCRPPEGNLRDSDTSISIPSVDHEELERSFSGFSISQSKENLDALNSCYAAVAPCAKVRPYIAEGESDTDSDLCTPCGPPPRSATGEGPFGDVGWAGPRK
test-name: SyncroPatch 384 electrophysiology, CHO cells stably expressing human Kv7.2
Format: cell-based
assay-setup: Table 1; CHO cells, potassium current at -90 mV step, in presence of zinc pyrithione
pEC50: −log10 of the molar value.
Please note: 1 applies when pEC50 is 7 or greater, and -1 applies otherwise.

Here are 4 compounds together with their reported answers.
compound: O=C(NCc1ccnc(OC(F)F)c1)NC1CC2(CCC2)C1 [Example 4]
assayed-target: UniProt O43526
category: 1
//
compound: O=C(NCc1ccnc(OC(F)F)c1)NC1(CO)CC2(CCC2)C1 [Example 18]
assayed-target: UniProt O43526
category: -1
//
compound: O=C(NCc1ccnc(OC(F)F)c1)NC1CCC2(CCC2)C1 (stereo not drawn) [Example 11]
assayed-target: UniProt O43526
category: 1
//
compound: CC(F)(F)COc1cc(CNC(=O)NC2CC3(CCC3)C2)ccn1 [Example 5]
assayed-target: UniProt O43526
category: 1

# input Hi, just wondering whether O=C(NCc1ccnc(OC(F)F)c1)NC1COC2(CCC2)C1 (stereo not drawn) [Example 22] shows pEC50 of 7 or higher.
# output -1

# input Hi, just wondering whether O=C(NCc1ccnc(OC(F)F)c1)NC1CCOC2(CCC2)C1 (stereo not drawn) [Example 17] shows pEC50 of 7 or higher.
# output -1

# input Hi, just wondering whether O=C(NCc1ccnc(OC(F)F)c1)N[C@H]1CC2(CCC2)[C@@H]1O (racemic) [Example 25] shows pEC50 of 7 or higher.
# output -1

Source of measurements: patent US20240316020A1
